test system: WPMY1-CANX-COX4; experiment: phenotypically active (imaging signature differs from DMSO and reproducible) at any of 0.3-9 uM (binary (1 = active, 0 = inactive)); higher = active; settings: treatment time: 24 h
Structures can show the parent of a compound that is named as a salt.
Assign a class; possible classes are active, inactive

{"molecule": "COc1cc(OC2CCN(C)CC2)ccc1Nc1ncc2c(n1)n(C1CCCC1)c(=O)n2C", "class assignment": "active"}
{"molecule": "CC(c1cc2ccccc2s1)N(O)C(N)=O (centres undefined)", "class assignment": "inactive"}
{"molecule": "Cn1nnc2c(C(N)=O)ncn2c1=O [temozolomide]", "class assignment": "inactive"}
{"molecule": "CC(C)NCC(O)COc1cccc2ccccc12 (centres undefined)", "class assignment": "inactive"}
{"molecule": "CO[C@H]1C=CC=C(C)C(=O)NC2=CC(=O)C(NCCN(C)C)=C(C[C@@H](C)C[C@H](OC)[C@H](O)[C@@H](C)C=C(C)[C@@H]1OC(N)=O)C2=O [17-DMAG hydrochloride]", "class assignment": "active"}
{"molecule": "O=C(Cc1ccc(-c2ccc(OCCN3CCOCC3)cc2)cn1)NCc1ccccc1", "class assignment": "active"}

Problem: Short answer needed: outcome of this test for CNC[C@H](O)c1ccc(O)c(O)c1 [epinephrine] ?
Result: inactive

Problem: Short answer needed: outcome of this test for CN(C)CCCNc1c2c(=O)n(C)c(=O)nc-2n(C)c2ccccc12 ?
Result: active

Problem: Short answer needed: outcome of this test for CC(=O)c1ccc(S(=O)(=O)NC(=O)NC2CCCCC2)cc1 [acetohexamide] ?
Result: inactive

---

This section presents compounds with their documented lowest phenotypically active concentration values.
system: A549-TUBA1B-RELA; assay: lowest phenotypically active concentration; higher = less potent; conditions: treatment time: 24 h
Where a name gives a salt, the structure may show the parent alone.
Form entry: value (µM) — number only.

Check out these entries, answers already filled in.
{"compound": "Cc1ccc2nc(NCCN)c3ncc(C)n3c2c1", "experimental target": "A549-TUBA1B-RELA", "experimental result": 3}
{"compound": "COc1cc(OC2CCN(C)CC2)ccc1Nc1ncc2c(n1)n(C1CCCC1)c(=O)n2C", "experimental target": "A549-TUBA1B-RELA", "experimental result": 3}
{"compound": "COc1cc(N2CCC(O)CC2)ccc1Nc1cc(Nc2ccccc2S(=O)(=O)C(C)C)c2cc[nH]c2n1 [Mps1-IN-1 dihydrochloride]", "experimental target": "A549-TUBA1B-RELA", "experimental result": 9}

Pending compound:
Problem: Kindly indicate its recorded lowest phenotypically active concentration. Item: CCCCOc1cc(C(=O)NCCN(CC)CC)c2ccccc2n1 [cinchocaine]
Result: 9

---

system: HepG2-TUBA1B-RELA; test: phenotypically active (imaging signature differs from DMSO and reproducible) at any of 0.3-9 uM (binary (1 = active, 0 = inactive)); higher = active; conditions: treatment time: 24 h
Assign a class; possible classes are active, inactive

Solved cases (6 shown):
{"compound": "CCOC(=O)c1c2c3c(cccc3[nH]c1=O)C(=O)c1ccccc1-2", "experimental target": "HepG2-TUBA1B-RELA", "class assignment": "inactive"}
{"compound": "CN1c2ccccc2C(=O)N2CCc3c([nH]c4ccccc34)[C@H]21", "experimental target": "HepG2-TUBA1B-RELA", "class assignment": "active"}
{"compound": "C[C@@H](Oc1cc(-n2cnc3ccc(CN4CCN(C)CC4)cc32)sc1C(N)=O)c1ccccc1C(F)(F)F", "experimental target": "HepG2-TUBA1B-RELA", "class assignment": "active"}
{"compound": "CCCCC1C(=O)N(c2ccccc2)N(c2ccc(O)cc2)C1=O (stereo not drawn)", "experimental target": "HepG2-TUBA1B-RELA", "class assignment": "inactive"}
{"compound": "C[C@H]1O[C@H](O[C@H]2[C@H](O)[C@@H](O)[C@@H](O[C@H]3[C@H](O)[C@@H](O)[C@H](O)O[C@@H]3CO)O[C@@H]2CO)[C@H](O)[C@@H](O)[C@@H]1N[C@H]1C=C(CO)[C@@H](O)[C@H](O)[C@H]1O", "experimental target": "HepG2-TUBA1B-RELA", "class assignment": "inactive"}
{"compound": "CC1=CC(=O)C2=C(C)CC[C@@H]3[C@H](OC(=O)[C@H]3C)[C@@H]12", "experimental target": "HepG2-TUBA1B-RELA", "class assignment": "inactive"}

Problem: Short answer needed: outcome of this test for CSc1ccc2c(c1)N(CCC1CCCCN1C)c1ccccc1S2 (stereo not drawn) ?
Result: active

Problem: Short answer needed: outcome of this test for C[N+](C)(C)CCCCCC[N+](C)(C)C [Hexamethonium bromide] ?
Result: inactive
